Test: in vivo
Parameters: species or system CD1 mice
Conditions: CD1, mouse, in vivo, po, 10 mg/kg, PO 10 mg/kg, CD1 mice, 0.25 hr; read-out: Brain/Plasma (%), individual
readout-label: Kp at 0.25 h

compound_structure=C=C(C)[C@@H]1CCC(C)=C[C@H]1c1c(O)cc(CC2CN(C(C)=O)C2)cc1O assay_result=0.801

---

Assay: in vivo
Parameters: species or system CD1 mice
Settings: CD1, mouse, in vivo, po, 10 mg/kg, PO 10 mg/kg, CD1 mice, 0.25 hr; read-out: Brain concentration, mean
readout-label: concentration at 0.25 h

compound_structure=C=C(C)[C@@H]1CCC(C)=C[C@H]1c1c(O)cc(CC2CN(C(C)=O)C2)cc1O readout_label="concentration at 0.25 h" assay_result="469 ng/mL"

---

Experiment: Pharmacokinetic profile after an IV dose in CD1 mice
Assay type: in vivo
Conditions: CD1, mouse, in vivo, iv, 2 mg/kg
readout-label: MRT inf

molecule="C=C(C)[C@@H]1CCC(C)=C[C@H]1c1c(O)cc(CC2CN(C(C)=O)C2)cc1O [Example 2]" assay_result="42.1 min"

---

Assay: in vivo
Set-up: species or system CD1 mice
Conditions: CD1, mouse, in vivo, po, 10 mg/kg, PO 10 mg/kg, CD1 mice, 0.25 hr; read-out: CSF/Plasma (%), individual
readout-label: Kp at 0.25 h

compound="C=C(C)[C@@H]1CCC(C)=C[C@H]1c1c(O)cc(CC2CN(C(C)=O)C2)cc1O [Example 2]" assay_result=0.0179

---

Experiment: in vivo
Parameters: species or system CD1 mice
Conditions: CD1, mouse, in vivo, po, 10 mg/kg, PO 10 mg/kg, CD1 mice, 0.25 hr; read-out: CSF/Plasma (%), mean
readout-label: Kp at 0.25 h

molecule="C=C(C)[C@@H]1CCC(C)=C[C@H]1c1c(O)cc(CC2CN(C(C)=O)C2)cc1O [Example 2]" assay_result=0.0155

---

Test: in vivo
Set-up: species or system CD1 mice
Settings: CD1, mouse, po, 10 mg/kg
readout-label: Tmax (min)

compound_structure=C=C(C)[C@@H]1CCC(C)=C[C@H]1c1c(O)cc(CC2CN(C(C)=O)C2)cc1O assay_result=15

---

System: hippocampal cultures
Experiment: Neuroprotection from 30 mM ethanol plus 300 μM ammonium acetate, CFDA assay
Assay type: cell-based
Conditions: Rattus norvegicus, read-out: NP from ethanol + AmAc CFDA EC50
pEC50: −log10 of the molar value.
List of pEC50 values.
readout-label: pEC50

compound_structure=C=C(C)[C@@H]1CCC(C)=C[C@H]1c1c(O)cc(CC2CN(C(=O)OCC)C2)cc1O assay_result=7.06
compound_structure=C=C(C)[C@@H]1CCC(C)=C[C@H]1c1c(O)cc(CC2CN(C(C)=O)C2)cc1O assay_result=6.90

---

Test: Pharmacokinetic profile after an IV dose in CD1 mice
Format: in vivo
Details: CD1, mouse, in vivo, iv, 2 mg/kg
readout-label: AUC(0-t) (ng·h/mL)

compound_structure=C=C(C)[C@@H]1CCC(C)=C[C@H]1c1c(O)cc(CC2CN(C(C)=O)C2)cc1O readout_label=AUC(0-t) assay_result=431

---

Test: in vivo
Parameters: species or system CD1 mice
Conditions: CD1, mouse, in vivo, po, 10 mg/kg, PO 10 mg/kg, CD1 mice, 2 hr; read-out: Brain/Plasma (%), mean
readout-label: Kp at 2 h

molecule="C=C(C)[C@@H]1CCC(C)=C[C@H]1c1c(O)cc(CC2CN(C(C)=O)C2)cc1O [Example 2]" readout_label="Kp at 2 h" assay_result=1.17

---

Test: in vivo
Set-up: species or system CD1 mice
Settings: CD1, mouse, in vivo, po, 10 mg/kg, PO 10 mg/kg, CD1 mice, 2 hr; read-out: CSF/Plasma (%), mean
readout-label: Kp at 2 h

compound="C=C(C)[C@@H]1CCC(C)=C[C@H]1c1c(O)cc(CC2CN(C(C)=O)C2)cc1O [Example 2]" assay_result=0.0291

---

Assay: Pharmacokinetic profile after an IV dose in CD1 mice
Format: in vivo
Settings: CD1, mouse, in vivo, iv, 2 mg/kg
readout-label: Vd (L/kg)

compound_structure=C=C(C)[C@@H]1CCC(C)=C[C@H]1c1c(O)cc(CC2CN(C(C)=O)C2)cc1O readout_label=Vd assay_result=3.19

---

Assay: in vivo
Parameters: species or system CD1 mice
Conditions: CD1, mouse, in vivo, po, 10 mg/kg
readout-label: half-life (h)

compound="C=C(C)[C@@H]1CCC(C)=C[C@H]1c1c(O)cc(CC2CN(C(C)=O)C2)cc1O [Example 2]" assay_result=5.31

---

Assay: in vivo
Parameters: species or system CD1 mice
Conditions: CD1, mouse, in vivo, po, 10 mg/kg, PO 10 mg/kg, CD1 mice, 2 hr; read-out: Brain/Plasma (%), individual
readout-label: Kp at 2 h

compound_structure=C=C(C)[C@@H]1CCC(C)=C[C@H]1c1c(O)cc(CC2CN(C(C)=O)C2)cc1O assay_result=1.15

---

Assay: in vivo
Parameters: species or system CD1 mice
Conditions: CD1, mouse, in vivo, po, 10 mg/kg
readout-label: Tmax (min)

compound_structure=C=C(C)[C@@H]1CCC(C)=C[C@H]1c1c(O)cc(CC2CN(C(C)=O)C2)cc1O assay_result=15

---

Assay: Pharmacokinetic profile after an IV dose in CD1 mice
Format: in vivo
Details: CD1, mouse, in vivo, iv, 2 mg/kg
readout-label: AUC(0-inf)

compound="C=C(C)[C@@H]1CCC(C)=C[C@H]1c1c(O)cc(CC2CN(C(C)=O)C2)cc1O [Example 2]" readout_label=AUC(0-inf) assay_result="440 ng·h/mL"

---

Assay: Pharmacokinetic profile after an IV dose in CD1 mice
Assay type: in vivo
Details: mouse, plasma; IV 2 mg/kg, CD1 mice; read-out: Terminal t1/2 (converted)
readout-label: half-life (h)

compound_structure=C=C(C)[C@@H]1CCC(C)=C[C@H]1c1c(O)cc(CC2CN(C(C)=O)C2)cc1O readout_label=half-life measurement_units=h assay_result=3.24

---

Assay: in vivo
Set-up: species or system CD1 mice
Details: CD1, mouse, in vivo, po, 10 mg/kg, PO 10 mg/kg, CD1 mice, 0.25 hr; read-out: Brain/Plasma (%), mean
Description: The pharmacokinetic profile of compounds of the disclosure are determined in CD1 mice by administering IV and PO doses of the compounds of the disclosure to the CD1 mice. Plasma samples are drawn at 0.083, 0.25, 0.5, 1.0, 2.0, 4.0, 8.0, and 24 hours to determine the plasma concentration of the compounds of the disclosure. Brain and CSF samples were collected at 0.25 hours, 2 hours, and 8 hours post dosing. […]
readout-label: Kp at 0.25 h

compound="C=C(C)[C@@H]1CCC(C)=C[C@H]1c1c(O)cc(CC2CN(C(C)=O)C2)cc1O [Example 2]" assay_result=0.821

---

Assay: in vivo
Parameters: species or system CD1 mice
Conditions: CD1, mouse, po, 10 mg/kg
Experimental: The pharmacokinetic profile of compounds of the disclosure are determined in CD1 mice by administering IV and PO doses of the compounds of the disclosure to the CD1 mice. Plasma samples are drawn at 0.083, 0.25, 0.5, 1.0, 2.0, 4.0, 8.0, and 24 hours to determine the plasma concentration of the compounds of the disclosure. Brain and CSF samples were collected at 0.25 hours, 2 hours, and 8 hours post dosing. […]
readout-label: half-life (h)

compound="C=C(C)[C@@H]1CCC(C)=C[C@H]1c1c(O)cc(CC2CN(C(C)=O)C2)cc1O [Example 2]" measurement_units=h assay_result=5.36

---

Assay: in vivo
Set-up: species or system CD1 mice
Details: CD1, mouse, in vivo, po, 10 mg/kg, PO 10 mg/kg, CD1 mice, 2 hr; read-out: CSF concentration, mean
readout-label: concentration at 2 h (ng/mL)

compound_structure=C=C(C)[C@@H]1CCC(C)=C[C@H]1c1c(O)cc(CC2CN(C(C)=O)C2)cc1O readout_label="concentration at 2 h" assay_result=2.65

---

Assay: Pharmacokinetic profile after an IV dose in CD1 mice
Format: in vivo
Settings: CD1, mouse, in vivo, iv, 2 mg/kg
readout-label: clearance (mL/min/kg)

compound_structure=C=C(C)[C@@H]1CCC(C)=C[C@H]1c1c(O)cc(CC2CN(C(C)=O)C2)cc1O measurement_units=mL/min/kg assay_result=75.8

---

Tested on: hippocampal cultures
Assay: Neuroprotection from 30 mM ethanol, CFDA assay
Assay type: cell-based
Conditions: Rattus norvegicus, read-out: NP from Ethanol CFDA EC50
Reported EC50 is given for each of the following molecules.
readout-label: EC50 (nM)

molecule="C=C(C)[C@@H]1CCC(C)=C[C@H]1c1c(O)cc(CC2CN(C(C)=O)C2)cc1O [Example 2]" readout_label=EC50 assay_result=175
molecule="C=C(C)[C@@H]1CCC(C)=C[C@H]1c1c(O)cc(CC2CN(C(=O)OCC)C2)cc1O [Example 3]" readout_label=EC50 assay_result=30
